Recorded values, source patent US7223759B2.

In this section we review reported MIC values for a set of compounds.
Tested on: Escherichia coli (ATCC25922) or Staphylococcus aureus (ATCC25923)
Experiment: Antibacterial MIC, microdilution method in Mueller-Hinton medium
Assay type: cell-based
Conditions: Escherichia coli, 18 h, read-out: Potency (MIC)

Example entries begin here.
>>> value("N[C@@H]1C[C@H](N)CN(c2nc(Nc3ccc(NC(=O)c4ccc(Cl)cc4O)c(Br)c3)nc(N3C[C@H](N)C[C@H](N)C3)n2)C1")
"< 16 µg/mL"
>>> value("Cc1ccc(C(=O)Nc2ccc(Nc3nc(NC4CCNCC4)nc(N4C[C@H](N)C[C@H](N)C4)n3)cc2O)cc1")
"< 16 µg/mL"
>>> value("N[C@@H]1C[C@H](N)CN(c2nc(Nc3cccc([N+](=O)[O-])c3)nc(N3C[C@H](N)C[C@H](N)C3)n2)C1")
"> 64 µg/mL"
>>> value("N[C@@H]1C[C@H](N)CN(c2nc(Nc3ccc(S(=O)(=O)Nc4ccc5cn[nH]c5c4)cc3)nc(N3C[C@H](O)C[C@@H](O)C3)n2)C1")
"> 64 µg/mL"

// switching to the query compound
QUERY: Give MIC; test system Escherichia coli (ATCC25922) or Staphylococcus aureus (ATCC25923); compound `NC[C@@H]1C[C@H](N)CN1c1nc(Nc2ccc3c(c2)C(=O)c2ccccc2-3)nc(N2C[C@H](N)C[C@H](N)C2)n1`
RESULT: > 64 µg/mL

----------
System: Escherichia coli (ATCC25922) or Staphylococcus aureus (ATCC25923)
Assay: Antibacterial MIC, microdilution method in Mueller-Hinton medium
Format: cell-based
Settings: Escherichia coli, 18 h, read-out: Potency (MIC)
Recorded metric: MIC

Example entries begin here.
>>> value("Cc1ccc(S(=O)(=O)N(Cc2ccccc2)c2ccc(Nc3nc(NC4CCCNC4)nc(N4C[C@H](N)C[C@H](N)C4)n3)cc2O)cc1 (some centres unmarked)")
"< 64 µg/mL"
>>> value("N[C@@H]1C[C@H](N)CN(c2nc(Nc3ccc4c(c3)-c3ccccc3C4=O)nc(N3C[C@H](N)C[C@H](N)C3)n2)C1")
"< 16 µg/mL"
>>> value("COc1cccc(C(=O)Nc2ccc(Nc3nc(N4C[C@H](N)C[C@H](N)C4)nc(N4C[C@H](N)C[C@H](N)C4)n3)cc2Cl)c1O")
"< 16 µg/mL"
>>> value("N[C@@H]1C[C@H](N)CN(c2nc(Nc3ccc(C(=O)CC(=O)Nc4cccc(OC(F)(F)F)c4)cc3)nc(N3C[C@H](N)C[C@H](N)C3)n2)C1")
"< 16 µg/mL"
>>> value("COc1nc(Nc2ccc3c(c2)C(=O)c2ccccc2-3)nc(N2C[C@H](N)C[C@H](N)C2)n1")
"> 64 µg/mL"
>>> value("NC[C@@H]1C[C@@H](O)CN1c1nc(Nc2ccc3c(c2)C(=O)c2ccccc2-3)nc(N2C[C@H](N)C[C@H](N)C2)n1")
"> 64 µg/mL"
>>> value("N[C@@H]1C[C@H](N)CN(c2nc(Nc3ccc(NC(=O)c4ccc(Cl)cc4)c(O)c3)nc(N3CCNCC3)n2)C1")
"< 16 µg/mL"
>>> value("N[C@@H]1C[C@H](N)CN(c2nc(Nc3ccc(NC(=O)c4ccc(F)cc4O)c(Cl)c3)nc(N3C[C@H](N)C[C@H](N)C3)n2)C1")
"> 64 µg/mL"
>>> value("CSc1ccc(CNc2nc(N3C[C@H](N)C[C@H](N)C3)nc(N3C[C@H](N)C[C@H](N)C3)n2)cc1")
"< 64 µg/mL"
>>> value("COc1ccc(NC(=O)c2ccc(C)cc2O)c(Nc2nc(N3C[C@H](N)C[C@H](N)C3)nc(N3C[C@H](N)C[C@H](N)C3)n2)c1")
"> 64 µg/mL"

// switching to the query compound
QUERY: Query MIC for `N[C@@H]1C[C@H](N)CN(c2nc(Nc3ccc(NC(=O)c4cc(OC(F)(F)F)ccc4O)c(O)c3)nc(N3C[C@H](N)C[C@H](N)C3)n2)C1`
RESULT: < 16 µg/mL

----------
In this section we review reported MIC values for a set of compounds.
Test system: Escherichia coli (ATCC25922) or Staphylococcus aureus (ATCC25923)
Assay: Antibacterial MIC, microdilution method in Mueller-Hinton medium
Assay type: cell-based
Details: Escherichia coli, 18 h, read-out: Potency (MIC)
Description: The antibacterial activity of the Formula I compounds was evaluated against standard bacterial strains by determining the minimal inhibitory concentration (MIC) to block growth. Each drug was assayed by the microdilution method in Mueller-Hinton medium, as recommended by the National Committee for Clinical Laboratory Standards. […] The MIC was determined as the lowest concentration of each compound that prevented bacterial growth after 18 hours of incubation at 35° C. […]

>>> value("Cc1ccc(S(=O)(=O)N(Cc2ccccc2)c2ccc(Nc3nc(N(CCN)CCN)nc(N4C[C@H](N)C[C@H](N)C4)n3)c(O)c2)cc1")
"< 64 µg/mL"
>>> value("N[C@@H]1C[C@H](N)CN(c2nc(Nc3ccc(NC(=O)C(=O)c4c[nH]c5ccccc45)c(O)c3)nc(N3C[C@H](N)C[C@H](N)C3)n2)C1")
"< 16 µg/mL"
>>> value("N[C@@H]1C[C@H](N)CN(c2nc(Nc3ccc(NC(=O)c4ccc(Cl)cc4)c(O)c3)nc(N3C[C@H](O)C[C@@H](O)C3)n2)C1")
"< 64 µg/mL"
>>> value("N[C@@H]1C[C@H](N)CN(c2nc(NCc3ccc4c(c3)OCO4)nc(N3C[C@H](N)C[C@H](N)C3)n2)C1")
"> 64 µg/mL"
>>> value("COc1ccc(C(=O)Nc2ccc(Nc3nc(N4C[C@H](N)C[C@H](N)C4)nc(N4C[C@H](N)C[C@H](N)C4)n3)cc2O)cc1")
"< 16 µg/mL"
>>> value("N[C@@H]1C[C@H](N)CN(c2nc(Nc3ccc(C(=O)CC(=O)Nc4ccc(SC(F)(F)F)cc4)cc3)nc(N3C[C@@H](N)C[C@H]3CO)n2)C1")
"< 16 µg/mL"
>>> value("Cc1cccc(C(=O)Nc2ccc(Nc3nc(N4C[C@H](N)C[C@H](N)C4)nc(N4C[C@H](N)C[C@H](N)C4)n3)cc2O)c1O")
"< 16 µg/mL"
>>> value("N[C@@H]1C[C@H](N)CN(c2nc(Nc3ccc4ccccc4c3)nc(N3C[C@H](N)C[C@H](N)C3)n2)C1")
"< 64 µg/mL"

QUERY: Query MIC for `N[C@@H]1C[C@H](N)CN(c2nc(Nc3ccc(C(=O)Nc4ccc(F)c(Cl)c4)c(O)c3)nc(N3C[C@H](N)C[C@H](N)C3)n2)C1`
RESULT: < 16 µg/mL

QUERY: Query MIC for `Cc1ccc(S(=O)(=O)N(Cc2ccccc2)c2ccc(Nc3nc(N4C[C@H](N)C[C@H](N)C4)nc(N4C[C@H](O)C[C@@H](O)C4)n3)cc2O)cc1`
RESULT: < 64 µg/mL

QUERY: Query MIC for `N[C@@H]1C[C@H](N)CN(c2nc(Nc3cccc(NC(=O)c4cccc(O)c4O)c3)nc(N3C[C@H](N)C[C@H](N)C3)n2)C1`
RESULT: < 16 µg/mL

QUERY: Query MIC for `N[C@@H]1C[C@H](N)CN(c2nc(Nc3cccc(NC(=O)c4ccc(Cl)cc4O)c3)nc(N3C[C@H](N)C[C@H](N)C3)n2)C1`
RESULT: < 16 µg/mL

QUERY: Query MIC for CCCCCC(CC)C(=O)Nc1ccc(S(=O)(=O)Nc2ccc(Nc3nc(N4C[C@H](N)C[C@H](N)C4)nc(N4C[C@H](N)C[C@H](N)C4)n3)cc2O)cc1 (some centres unmarked)
RESULT: < 16 µg/mL

QUERY: Query MIC for `N[C@@H]1C[C@H](N)CN(c2nc(Nc3ccc(NS(=O)(=O)c4cc(Cl)cc(Cl)c4O)c(O)c3)nc(N3C[C@H](N)C[C@H](N)C3)n2)C1`
RESULT: < 16 µg/mL

----------
In this section we review reported MIC values for a set of compounds.
System: Escherichia coli (ATCC25922) or Staphylococcus aureus (ATCC25923)
Assay: Antibacterial MIC, microdilution method in Mueller-Hinton medium
Format: cell-based
Details: Escherichia coli, 18 h, read-out: Potency (MIC)

Example entries begin here.
>>> value("N[C@@H]1C[C@H](N)CN(c2nc(Nc3ccc(C(=O)CC(=O)Nc4ccc(SC(F)(F)F)cc4)cc3)nc(N3C[C@H](N)C[C@H](N)C3)n2)C1")
"< 16 mg/L"
>>> value("NC[C@@H]1C[C@H](N)CN1c1nc(Nc2ccc(S(=O)(=O)Nc3ccc4cn[nH]c4c3)cc2)nc(N2C[C@H](N)C[C@H](N)C2)n1")
"> 64 mg/L"
>>> value("COc1ccc(S(=O)(=O)Nc2ccc(Nc3nc(N4C[C@H](N)C[C@H](N)C4)nc(N4C[C@H](N)C[C@H](N)C4)n3)cc2O)cc1OC")
"> 64 mg/L"

QUERY: Query MIC for `N[C@@H]1C[C@H](N)CN(c2nc(Nc3ccc(NC(=O)c4ncccc4O)cc3)nc(N3C[C@H](N)C[C@H](N)C3)n2)C1`
RESULT: < 64 mg/L

QUERY: Query MIC for `Nc1cncc(Nc2nc(N3C[C@H](N)C[C@H](N)C3)nc(N3C[C@H](N)C[C@H](N)C3)n2)c1`
RESULT: > 64 mg/L

QUERY: Query MIC for `Cc1ccc2nc(-c3ccc(Nc4nc(N5C[C@H](N)C[C@H](N)C5)nc(N5C[C@H](N)C[C@H](N)C5)n4)cc3)sc2c1`
RESULT: < 16 mg/L

QUERY: Query MIC for `CC(=O)c1ccc(Nc2nc(N3C[C@H](N)C[C@H](N)C3)nc(N3CCC[C@@H](O)C3)n2)cc1`
RESULT: > 64 mg/L
